# experiment_notes: NCI Yeast Anticancer Drug Screen. Data for the mlh1 rad18 strain (AID 175)
# protocol_conditions: S. cerevisiae mlh1 rad18 strain growth inhibition; at 5.0 µM (retest, dose inferred, filed as 0.5); active compounds read high
This is part of a sample that, as a whole, favours compounds with a hit. Of some 79,000 tested, about 15% had one in any assay.
measure_name: growth inhibition (%)
Field format: number, assumed %, no unit text.

Example entries and their recorded answers appear below.
In: Given the molecule `Cc1ccc(NC(=O)CSC(N)=O)cc1` , what is its reported growth inhibition?
Out: 2

In: Need growth inhibition of `CCCCCC(=O)/C=C/c1ccc(C)cc1` , thanks.
Out: -123

In: Name the recorded growth inhibition for C=C1C(=O)OC2CC1C(O)C/C(C)=C/CC/C(C)=C/C(O)CC2C (configuration not stated) .
Out: 48

In: Query: growth inhibition; subject: `Cc1cc(NS(=O)(=O)c2ccc(Nc3c4ccccc4nc4c(C(=O)NC(CO)(CO)CO)cccc34)cc2)no1`
Out: -2

In: Fill in: growth inhibition of C=C1C[C@@]2(OC)OCC[C@H]3C(C)=CCC(C1=O)[C@]32C(=O)OC (some centres not stated) is ___
Out: 4

In: Fill in the blank: the reported growth inhibition of `O=C(O)Cc1nc2ccccc2[nH]1` is ____.
Out: 2

Further cases:
In: Fill in the blank: the reported growth inhibition of `C#CC(C)(C)Nc1c2ccccc2nc2ccccc12` is ____.
Out: 11

In: I have this molecule here, `CCN(CC)CCOc1ccc(-c2nc3cc(Cl)ccc3s2)cc1` , and I need its recorded growth inhibition.
Out: 39

In: Given the molecule `O=C(Cc1ccccc1)c1ccc(O)c(F)c1` , what is its reported growth inhibition?
Out: 7

In: Which growth inhibition is reported for this molecule? COc1ccc(C2CC(CO)ON2c2ccccc2)cc1 (configuration not stated)
Out: -6

In: Given the molecule Cc1ccc(S(=O)(=O)N(c2ccccc2-c2ccccc2)C(C)C(=O)O)cc1 (configuration not stated) , what is its reported growth inhibition?
Out: 5

In: What measured growth inhibition goes with CC(=O)Oc1cc2c(cc1OC(C)=O)OCC(c1ccccc1)C2 (configuration not stated) ?
Out: -10
